TARGET_ENTITY: T1, Soluble heterodimeric CD3 protein (hCD3-epsilon/hCD3-delta) with either a human Fc tag (hFcΔAdp/hFc) or a … (human, UniProt P07766 23-126; P04234 22-105)
T1 construct: also called hCD3ε/δ; not shown: Fc tag: human (hFcΔAdp/hFc)
MEASUREMENT_NOTES: SPR Biacore 25C antigen-capture
MEASURE_NAME: kon (M⁻¹ s⁻¹)
Give bare numbers, in M⁻¹ s⁻¹.

Here's what some known entries look like.
>  <BINDER>
H1H5763P (antibody, human IgG1, V domains shown, H1H: human IgG1 Fc; divalent) VH: QVQLVESGGGVVQPGRSLRLSCAASGLTFSSYGMHWVRQAPGKGLEWVAVISYDGSNKYYTDSVKGRFTISRDNSKNTLYLQMNSLRAEDTAVYYCAKGAMVRGVPYNYYYGMDVWGQGTTVTVSS VL: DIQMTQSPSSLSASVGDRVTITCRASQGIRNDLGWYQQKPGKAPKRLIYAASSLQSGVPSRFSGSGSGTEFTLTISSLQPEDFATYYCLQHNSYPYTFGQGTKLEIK

>  <DATA_VALUE>
184000

$$$$
>  <BINDER>
H2M2775N (antibody, mouse IgG2, V domains shown, H2M: mouse IgG2 Fc, human variable regions; divalent) VH: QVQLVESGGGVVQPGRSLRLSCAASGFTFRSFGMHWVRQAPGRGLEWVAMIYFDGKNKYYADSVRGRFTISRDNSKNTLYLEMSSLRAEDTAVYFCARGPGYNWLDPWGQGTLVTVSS VL: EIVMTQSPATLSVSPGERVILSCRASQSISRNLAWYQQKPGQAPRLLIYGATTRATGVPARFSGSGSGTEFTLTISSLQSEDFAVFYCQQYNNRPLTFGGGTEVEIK

>  <DATA_VALUE>
1.56e+06

$$$$
>  <BINDER>
H2M2774N (antibody, mouse IgG2, V domains shown, H2M: mouse IgG2 Fc, human variable regions; divalent) VH: QVQLVESGGGVVQPGRSLRLSCVASGFTFRSYGMHWVRQAPGKGLQWVAMIYYDGKNKYYADSVRGRFTISRDNSKNTLYLQMNSLRAEDTAMYFCARGPGYNWLDPWGQGTLVTVSS VL: EIVMTQSPATLSVSPGERATLSCRASQRISSNLAWYQQKPGQAPRLLIYGASTRATGSPARFSGSGSGTEFTLTISSLQSEDVAVYYCQQHNNWPLTFGGGTKVEIK

>  <DATA_VALUE>
2.49e+06

$$$$

Now let's try a different one.
For the binder H2M2710N (antibody, V domains shown, H2M: mouse IgG2 Fc, human variable regions; divalent) VH: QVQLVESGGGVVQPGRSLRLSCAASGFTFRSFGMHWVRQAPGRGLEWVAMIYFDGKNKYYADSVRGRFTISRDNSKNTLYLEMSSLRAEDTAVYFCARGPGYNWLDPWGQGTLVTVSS VL: EIVMTQSPATLSVSPGERATLSCRASQSVSRNLAWYQQKPGQAPRLLIYGASTRATGVPARFSGSGSGTEFTLTISSLQSEDFAVFHCQQYNNRPLTFGGGTEVEIK , give its measured kon value.
1.59e+06
